target: GABARAP WT (human GABARAP 1-116) (human, UniProt O95166 1-116); assay: ITC; peptide in the syringe (0.5 mM) titrated into 200 µl of the Atg8 homologue in the cell at a 10 times lower concentration; MicroCal iTC200, 25 °C, stirring at 1000 rpm; single-site binding model; N fixed to 1.0 when the fitting was not convergent due to weak interaction; errors are fitting errors; details: both partners purified
Sequence (O95166 1-116): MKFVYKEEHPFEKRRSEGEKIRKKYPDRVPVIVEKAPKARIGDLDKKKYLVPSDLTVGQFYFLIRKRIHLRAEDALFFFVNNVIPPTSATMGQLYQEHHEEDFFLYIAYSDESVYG
PARAMETER MEASURED: pKd
Numbers only, as −log10 of the molar value.

[in] Using the record for GPHSSGNGNDFEMATKEELEQQTDY [SEC62355-376 I366A peptide] , report its pKd.
[out] 4.84

Source of measurements: paper PMC7335187
